system_tested: T1, recombinant human IL-6 (human, UniProt P05231 30-212)
T1 construct: Bought protein
assay: SPR Biacore, supernatant Ab on Protein A chip, IL-6 analyte, 25 C
measurement_name: Kd (nM)
Numbers only, in nM.

Each of the following entries comes with a recorded value; kindly state Kd for each.
1. anti-IL-6 antibody, light chain M50D (heavy chain WT) (antibody, V domains shown, See note of m2; also called WT / M50D) VH: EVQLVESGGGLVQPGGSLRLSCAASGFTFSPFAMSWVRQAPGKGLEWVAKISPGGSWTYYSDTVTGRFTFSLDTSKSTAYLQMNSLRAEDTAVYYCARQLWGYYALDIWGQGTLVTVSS VL: DIQLTQSPSSLSASVGDRVTITCSASISVSYMYWYQQKPGKAPKLLIYDDSNLASGVPSRFSGSGSGTDFTLTISSLQPEDFATYYCMQWSGYPYTFGQGTKVEIK
2. anti-IL-6 antibody, light chain S55Y (heavy chain WT) (antibody, V domains shown, See note of m2; also called WT / S55Y) VH: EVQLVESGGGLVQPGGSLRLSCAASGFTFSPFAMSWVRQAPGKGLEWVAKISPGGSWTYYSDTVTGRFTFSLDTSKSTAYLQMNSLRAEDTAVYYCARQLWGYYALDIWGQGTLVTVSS VL: DIQLTQSPSSLSASVGDRVTITCSASISVSYMYWYQQKPGKAPKLLIYDMSNLAYGVPSRFSGSGSGTDFTLTISSLQPEDFATYYCMQWSGYPYTFGQGTKVEIK
3. anti-IL-6 antibody, light chain S91A (heavy chain WT) (antibody, V domains shown, See note of m2; also called WT / S91A) VH: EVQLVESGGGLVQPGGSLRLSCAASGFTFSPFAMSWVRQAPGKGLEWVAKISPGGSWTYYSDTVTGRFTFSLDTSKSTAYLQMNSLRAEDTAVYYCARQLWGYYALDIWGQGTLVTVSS VL: DIQLTQSPSSLSASVGDRVTITCSASISVSYMYWYQQKPGKAPKLLIYDMSNLASGVPSRFSGSGSGTDFTLTISSLQPEDFATYYCMQWAGYPYTFGQGTKVEIK
4. anti-IL-6 antibody, heavy chain variant I (M34I, G66D, I108V) / light chain variant III (M32L, M50D, N52S, M88Q) (antibody, human IgG1, V domains shown, also called M34I, G66D, I108V/ M32L, M50D, N52S, M88Q; I/III) VH: EVQLVESGGGLVQPGGSLRLSCAASGFTFSPFAISWVRQAPGKGLEWVAKISPGGSWTYYSDTVTDRFTFSLDTSKSTAYLQMNSLRAEDTAVYYCARQLWGYYALDVWGQGTLVTVSS VL: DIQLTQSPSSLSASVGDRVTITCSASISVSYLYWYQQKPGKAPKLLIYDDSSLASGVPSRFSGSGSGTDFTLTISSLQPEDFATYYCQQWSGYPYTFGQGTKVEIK

Key:
0.138
0.461
0.407
0.552

Exercise: Requested read-out: Kd. Entry: anti-IL-6 antibody, light chain S30A (heavy chain WT) (antibody, V domains shown, See note of m2; also called WT / S30A) VH: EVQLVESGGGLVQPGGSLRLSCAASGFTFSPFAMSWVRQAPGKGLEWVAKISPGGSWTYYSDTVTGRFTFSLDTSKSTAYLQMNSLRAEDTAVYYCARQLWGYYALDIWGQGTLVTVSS VL: DIQLTQSPSSLSASVGDRVTITCSASISVAYMYWYQQKPGKAPKLLIYDMSNLASGVPSRFSGSGSGTDFTLTISSLQPEDFATYYCMQWSGYPYTFGQGTKVEIK
Key: 0.639
